# Tested on: PSN1 cells, pERK
# MEASUREMENT_PROTOCOL: Inhibition of KRas phosphorylation of ERK (Cisbio HTRF Advanced pERK assay)
# Assay type: cell-based
# STATED_CONDITIONS: Homo sapiens, PSN1, 3 h, read-out: Inhibition (HTRF IC50 nM) of KRas-mediated Phosphorylation of ERK, PSN1
Output criterion met for records whose IC50 is lower than 800 nM, criterion not met for records at or above 800 nM.

{"COMPOUND": "O=C1CC2(CCCN(c3nc(OC[C@@]45CCCN4C[C@H](F)C5)nc4c3CCN(c3cc(O)cc5ccc(F)c(Cl)c35)C4)C2)N1 (stereo partly drawn) [Example 70]", "DISCRETE_LABEL": "criterion met"}
{"COMPOUND": "Nc1cc2n(n1)CCCN(c1nc(OC[C@@]34CCCN3C[C@H](F)C4)nc3c1CCN(c1cc(O)cc4ccc(F)c(Br)c14)C3)C2 [Example 212]", "DISCRETE_LABEL": "criterion not met"}
{"COMPOUND": "CCc1c(F)ccc2cc(O)cc(N3CCc4c(nc(OC[C@@]56CCCN5C[C@H](F)C6)nc4N4CCCC(O)CC4)C3)c12 (stereo partly drawn) [Example 30]", "DISCRETE_LABEL": "criterion not met"}
{"COMPOUND": "CCc1c(F)ccc2cc(O)cc(N3CCc4c(nc(OC[C@@]56CCCN5C[C@H](F)C6)nc4N4C[C@H]5C[C@@H](O)C[C@H]5C4)C3)c12 [Example 184]", "DISCRETE_LABEL": "criterion not met"}
{"COMPOUND": "CCc1c(F)ccc2cc(O)cc(N3CCc4c(nc(OC[C@@]56CCCN5C[C@H](F)C6)nc4N4CC5CC(O)CC4C5)C3)c12 (stereo partly drawn) [Example 35]", "DISCRETE_LABEL": "criterion not met"}
{"COMPOUND": "CCc1c(F)ccc2cc(O)cc(N3CCc4c(nc(OC[C@@H]5CCCN5C)nc4N4CCCn5nc(C(=O)N(C)C)cc5C4)C3)c12 [Example 198]", "DISCRETE_LABEL": "criterion not met"}
{"COMPOUND": "CCc1c(F)ccc2cc(O)cc(N3CCc4c(nc(OC[C@@]56CCCN5C[C@H](F)C6)nc4N4C[C@H]5C[C@H](O)C[C@H]5C4)C3)c12 [Example 183]", "DISCRETE_LABEL": "criterion not met"}
{"COMPOUND": "Oc1cc(N2CCc3c(nc(OC[C@@]45CCCN4C[C@H](F)C5)nc3N3CCOCC(n4cccn4)C3)C2)c2c(Br)c(F)ccc2c1 (stereo partly drawn) [Example 221]", "DISCRETE_LABEL": "criterion not met"}
{"COMPOUND": "CCc1c(F)ccc2cc(O)cc(N3CCc4c(nc(OC[C@@]56CCCN5C[C@H](F)C6)nc4N4CCCC5(CC(=O)N5)C4)C3)c12 (stereo partly drawn) [Example 21]", "DISCRETE_LABEL": "criterion met"}
{"COMPOUND": "CCc1c(F)ccc2cc(O)cc(N3CCc4c(nc(OC[C@@]56CCCN5C[C@H](F)C6)nc4NCc4c[nH]c5ncccc45)C3)c12 [Example 23]", "DISCRETE_LABEL": "criterion not met"}
{"COMPOUND": "O=C1NCC2(CCCN(c3nc(OC[C@@]45CCCN4C[C@H](F)C5)nc4c3CCN(c3cc(O)cc5ccc(F)c(Br)c35)C4)C2)N1 (stereo partly drawn) [Example 216]", "DISCRETE_LABEL": "criterion not met"}
{"COMPOUND": "O=C1NCC2(CCCN(c3nc(OC[C@@]45CCCN4C[C@H](F)C5)nc4c3CCN(c3cc(O)cc5ccc(F)c(Cl)c35)C4)C2)N1 (stereo partly drawn) [Example 228]", "DISCRETE_LABEL": "criterion met"}
